The reported measurements were obtained from patent US6015823A.

- assay_protocol: logp: n-octanol/water partition coefficient by reversed phase HPLC
- Type: physicochemical
- experimental_parameters: h2o/ch3cn, read-out: logp (logarithm to base ten of the n-octanol/water partition coefficient)
- From the text: *) logp: Logarithm to base ten of the n-octanol/water partition coefficient, determined by reversed phase HPLC analysis using H2 O/CH3 CN. *^) logp: Logarithm to base ten of the noctanol/water partition coefficient, determined by reversed phase HPLC analysis using H2
quantity_name: chromatographic logP
Lab note: write the figure by itself, no unit.

C=CCON=C1CCC(c2ccc(C3COC(c4c(F)cccc4F)=N3)cc2)CC1 (centres unmarked) [Example 55]: 4.16

[Q] Look up chromatographic logP: ON=C1CCC(c2ccc(C3COC(c4c(F)cccc4F)=N3)cc2)CC1 (centres unmarked) [Example 3]
[A] 2.57

[Q] Look up chromatographic logP: Fc1cccc(F)c1C1=NC(c2ccc(C3CCC4(CC3)OCC(c3c(F)cccc3Cl)O4)cc2)CO1 (centres unmarked) [Example 59]
[A] 5.14

[Q] Look up chromatographic logP: Fc1cccc(F)c1C1=NC(c2ccc(C3CCC4(CC3)OCCCO4)cc2)CO1 (centres unmarked) [Example 32]
[A] 3.47

###

- assay_protocol: logp: n-octanol/water partition coefficient by reversed phase HPLC
- Format: physicochemical
- experimental_parameters: h2o/ch3cn, A isomer (possible geometric isomer), read-out: logp (logarithm to base ten of the n-octanol/water partition coefficient)
- Source text: *) logp: Logarithm to base ten of the n-octanol/water partition coefficient, determined by reversed phase HPLC analysis using H2 O/CH3 CN. *^) logp: Logarithm to base ten of the noctanol/water partition coefficient, determined by reversed phase HPLC analysis using H2
We use 5 as the dividing line for chromatographic logP: on or above the line is true, below is false.

Some solved cases for reference:
CC1CC(C)OC2(CCC(c3ccc(C4COC(c5c(F)cccc5F)=N4)cc3)CC2)O1 (stereo not drawn): false
CCCCC1COC2(CCC(c3ccc(C4COC(c5c(F)cccc5F)=N4)cc3)CC2)O1 (stereo not drawn): true
CCCCCCCCC1COC2(CCC(c3ccc(C4COC(c5c(F)cccc5F)=N4)cc3)CC2)O1 (stereo not drawn): true
Fc1cccc(F)c1C1=NC(c2ccc(C3CCC4(CC3)OCC(COc3ccccc3)O4)cc2)CO1 (stereo not drawn): false
Fc1cccc(F)c1C1=NC(c2ccc(C3CCC4(CC3)OCC(c3c(F)cccc3F)O4)cc2)CO1 (stereo not drawn): false

[Q] Is it the case that CCCCCCCC1COC2(CCC(c3ccc(C4COC(c5c(F)cccc5F)=N4)cc3)CC2)O1 (stereo not drawn) has chromatographic logP reaching or exceeding 5?
[A] true

[Q] Is it the case that CC1OC2(CCC(c3ccc(C4COC(c5c(F)cccc5F)=N4)cc3)CC2)OC1C (stereo not drawn) has chromatographic logP reaching or exceeding 5?
[A] false

[Q] Is it the case that CC1CCOC2(CCC(c3ccc(C4COC(c5c(F)cccc5F)=N4)cc3)CC2)O1 (stereo not drawn) has chromatographic logP reaching or exceeding 5?
[A] false

[Q] Is it the case that C=CCCCCC1COC2(CCC(c3ccc(C4COC(c5c(F)cccc5F)=N4)cc3)CC2)O1 (stereo not drawn) has chromatographic logP reaching or exceeding 5?
[A] true

[Q] Is it the case that Cc1cc(C)cc(OCC2COC3(CCC(c4ccc(C5COC(c6c(F)cccc6F)=N5)cc4)CC3)O2)c1 (stereo not drawn) has chromatographic logP reaching or exceeding 5?
[A] true

[Q] Is it the case that COCC1COC2(CCC(c3ccc(C4COC(c5c(F)cccc5F)=N4)cc3)CC2)O1 (stereo not drawn) has chromatographic logP reaching or exceeding 5?
[A] false
